Source of measurements: patent US5747535A

- experimental.details: Test 2: Pharmacokinetic test in dogs
- Format: in vivo, dog
- setup.conditions: dog, blood, iv, 10 mg/kg, Dog-1, i.v. 10 mg/kg, 20 min; read-out: Blood concentration
quantity.measured: concentration at 20 min (ng/mL)
One number for each entry, in ng/mL.

So what's the measured concentration at 20 min for this one? "CN(C(=O)[C@H](Cc1ccc(C(=N)NN)cc1)NS(=O)(=O)c1ccc2ccccc2c1)C1CCCC1"
3610

====

- experimental.details: Test 2: Pharmacokinetic test in rats
- Type: in vivo, rat
- setup.conditions: rat, blood, po, 15 mg/kg, Rat-1, oral 15 mg/kg, 60 min; read-out: Blood concentration
quantity.measured: concentration at 1 h (ng/mL)
Answers are plain numbers, in ng/mL.

Need concentration at 1 h of "CN(C(=O)[C@H](Cc1ccc(C(=N)NN)cc1)NS(=O)(=O)c1ccc2ccccc2c1)C1CCCC1" , thanks.
143

====

- experimental.details: Test 2: Pharmacokinetic test in rats
- Type: in vivo, rat
- setup.conditions: rat, blood, po, 15 mg/kg, rats, oral 15 mg/kg, 20 min; read-out: Blood concentration, Average(+error)
quantity.measured: concentration at 20 min (ng/mL)
Give bare numbers, in ng/mL.

What value of concentration at 20 min has been reported for the following compound? "CN(C(=O)[C@H](Cc1ccc(C(=N)NN)cc1)NS(=O)(=O)c1ccc2ccccc2c1)C1CCCC1"
255

====

- experimental.details: Test 2: Pharmacokinetic test in rats
- Assay type: in vivo, rat
- setup.conditions: rat, blood, po, 15 mg/kg, Rat-1, oral 15 mg/kg, 10 min; read-out: Blood concentration
quantity.measured: concentration at 10 min (ng/mL)
Numbers only, in ng/mL.

Form field: reported concentration at 10 min of "CN(C(=O)[C@H](Cc1ccc(C(=N)NN)cc1)NS(=O)(=O)c1ccc2ccccc2c1)C1CCCC1"
1480

====

- experimental.details: Test 2: Pharmacokinetic test in dogs
- Type: in vivo, dog
- setup.conditions: dog, blood, iv, 10 mg/kg, dogs, i.v. 10 mg/kg, 5 min; read-out: Blood concentration, Average(+error)
quantity.measured: concentration at 5 min
State the result as a value with its unit after it.

Need concentration at 5 min of CN(C(=O)[C@H](Cc1ccc(C(=N)NN)cc1)NS(=O)(=O)c1ccc2ccccc2c1)C1CCCC1 [Example 1] , thanks.
7160 ng/mL

====

- experimental.details: Test 2: Pharmacokinetic test in dogs
- Assay type: in vivo, dog
- setup.conditions: dog, blood, po, 10 mg/kg, Dog-2, oral 10 mg/kg, 10 min; read-out: Blood concentration
- Procedure: Male rats and dogs were fasted for 24 hours and used as the experimental animals. […] Bloods were collected from the animals at given time intervals and then immediately mixed with methanol and zinc sulfate. Finally, the upper layer of the mixture was quantitatively analyzed at ultraviolet wavelength of 231 nm to measure the drug concentration in blood by HPLC.
quantity.measured: concentration at 10 min

// lookup concentration at 10 min for CN(C(=O)[C@H](Cc1ccc(C(=N)NN)cc1)NS(=O)(=O)c1ccc2ccccc2c1)C1CCCC1 [Example 1]
15 ng/mL

====

- experimental.details: Test 2: Pharmacokinetic test in rats
- Assay type: in vivo, rat
- setup.conditions: rat, blood, po, 15 mg/kg, rats, oral 15 mg/kg, 60 min; read-out: Blood concentration, Average(+error)
quantity.measured: concentration at 1 h (ng/mL)
Answers are plain numbers, in ng/mL.

# query: concentration at 1 h of entry CN(C(=O)[C@H](Cc1ccc(C(=N)NN)cc1)NS(=O)(=O)c1ccc2ccccc2c1)C1CCCC1 [Example 1]
125

====

Target sequence: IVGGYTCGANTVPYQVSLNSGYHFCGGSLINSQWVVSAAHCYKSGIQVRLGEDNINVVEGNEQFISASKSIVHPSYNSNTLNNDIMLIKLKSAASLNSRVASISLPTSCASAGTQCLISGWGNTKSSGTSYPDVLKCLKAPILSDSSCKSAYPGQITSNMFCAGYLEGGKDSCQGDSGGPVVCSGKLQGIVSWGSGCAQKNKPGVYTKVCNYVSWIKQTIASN
quantity.measured: Ki (µM)
One number for each entry, in µM.

Solved cases (5 shown):
> print(dat)
                                smiles.code  experimental.value
1  CS(=O)(=O)N1CCN(C(=O)[C@H](Cc2ccc(C(=N)NN)cc2)NS(=O)(=O)c2ccc3ccccc3c2)CC1                5.79
2  COc1cccc2c(S(=O)(=O)N[C@@H](Cc3ccc(C(=N)NN)cc3)C(=O)N(C)C3CCCC3)cccc12                5.25
3  CN(C(=O)[C@H](Cc1ccc(C(=N)NN)cc1)NC(=O)COc1cccc2ccccc12)C1CCCC1                21.7
4  CN(C)c1cccc2c(S(=O)(=O)N[C@@H](Cc3ccc(C(=N)NN)cc3)C(=O)N(C)C3CCCC3)cccc12                3.98
5  COc1cc2ccc(S(=O)(=O)N[C@@H](Cc3ccc(C(=N)NN)cc3)C(=O)N(C)C3CCCC3)cc2cc1OC                 2.3

Now look at this entry.
Would you kindly share the measured Ki for "CN(C(=O)[C@H](Cc1ccc(C(=N)NN)cc1)NS(=O)(=O)c1ccc2ccccc2c1)C1CCCC1" ?
3.19

====

- experimental.details: Test 2: Pharmacokinetic test in rats
- Type: in vivo, rat
- setup.conditions: rat, blood, po, 15 mg/kg, Rat-1, oral 15 mg/kg, 180 min; read-out: Blood concentration
quantity.measured: concentration at 3 h (ng/mL)
Answers are plain numbers, in ng/mL.

# input compound: CN(C(=O)[C@H](Cc1ccc(C(=N)NN)cc1)NS(=O)(=O)c1ccc2ccccc2c1)C1CCCC1 [Example 1] ; wanted: its concentration at 3 h
24

====

- experimental.details: Test 2: Pharmacokinetic test in rats
- Format: in vivo, rat
- setup.conditions: rat, blood, iv, 10 mg/kg, Rat-3, i.v. 10 mg/kg, 20 min; read-out: Blood concentration
- Method: Male rats and dogs were fasted for 24 hours and used as the experimental animals. […] Bloods were collected from the animals at given time intervals and then immediately mixed with methanol and zinc sulfate. Finally, the upper layer of the mixture was quantitatively analyzed at ultraviolet wavelength of 231 nm to measure the drug concentration in blood by HPLC.
quantity.measured: concentration at 20 min (ng/mL)
Answers are plain numbers, in ng/mL.

Which concentration at 20 min value belongs to CN(C(=O)[C@H](Cc1ccc(C(=N)NN)cc1)NS(=O)(=O)c1ccc2ccccc2c1)C1CCCC1 [Example 1] ?
883

====

- experimental.details: Test 2: Pharmacokinetic test in rats
- Assay type: in vivo, rat
- setup.conditions: rat, blood, iv, 10 mg/kg, rats, i.v. 10 mg/kg, 90 min; read-out: Blood concentration, Average(+error)
quantity.measured: concentration at 1.5 h (ng/mL)
Give bare numbers, in ng/mL.

Entry "CN(C(=O)[C@H](Cc1ccc(C(=N)NN)cc1)NS(=O)(=O)c1ccc2ccccc2c1)C1CCCC1" has what concentration at 1.5 h?
173

====

- experimental.details: Test 2: Pharmacokinetic test in dogs
- Format: in vivo, dog
- setup.conditions: dog, blood, po, 10 mg/kg, Dog-2, oral 10 mg/kg, 180 min; read-out: Blood concentration
quantity.measured: concentration at 3 h (ng/mL)
Give bare numbers, in ng/mL.

Dear colleague, I am looking for the recorded concentration at 3 h of the following compound: "CN(C(=O)[C@H](Cc1ccc(C(=N)NN)cc1)NS(=O)(=O)c1ccc2ccccc2c1)C1CCCC1"
616

====

- experimental.details: Test 2: Pharmacokinetic test in dogs
- Format: in vivo, dog
- setup.conditions: dog, blood, iv, 10 mg/kg, Dog-2, i.v. 10 mg/kg, 5 min; read-out: Blood concentration
quantity.measured: concentration at 5 min (ng/mL)
Numbers only, in ng/mL.

// concentration at 5 min lookup, key: "CN(C(=O)[C@H](Cc1ccc(C(=N)NN)cc1)NS(=O)(=O)c1ccc2ccccc2c1)C1CCCC1"
5230

====

- experimental.details: Test 2: Pharmacokinetic test in rats
- Type: in vivo, rat
- setup.conditions: rat, blood, iv, 10 mg/kg, rats, i.v. 10 mg/kg, 3 min; read-out: Blood concentration, Average(+error)
quantity.measured: concentration at 0.05 h (ng/mL)
Numbers only, in ng/mL.

Fill in: concentration at 0.05 h of "CN(C(=O)[C@H](Cc1ccc(C(=N)NN)cc1)NS(=O)(=O)c1ccc2ccccc2c1)C1CCCC1" is ___
7590

====

- experimental.details: Test 2: Pharmacokinetic test in dogs
- Assay type: in vivo, dog
- setup.conditions: dog, blood, iv, 10 mg/kg, Dog-2, i.v. 10 mg/kg, 30 min; read-out: Blood concentration
quantity.measured: concentration at 0.5 h
Reply with the number and its unit after it.

Reported concentration at 0.5 h for "CN(C(=O)[C@H](Cc1ccc(C(=N)NN)cc1)NS(=O)(=O)c1ccc2ccccc2c1)C1CCCC1" : what is it?
1340 ng/mL
